// data source = PubChem BioAssay (NCI)

test system: OVCAR-4 ovarian; experiment: NCI tumour cell line growth inhibition, 48 h
endpointName: TGI

TGI for C[C@@H]1CC[C@@H]2[C@@H]1[C@H](OC(=O)/C=C/c1ccccc1)[C@]1(C3CCCCC3)C[C@@H](NC(=O)CO)[C@@]2(C)O1 is 35.4 µM

TGI for CCCCCC[C@H]1CC(=O)C2CCCC[C@@]23CC[C@H](CCl)N13 (stereo not given in full) (tested in a mixture with another compound) is > 100 µM

TGI for CCN1C(=O)NC(=O)C(C)(N2C(=O)c3c(F)c(F)c(F)c(F)c3C2=O)C1=O (stereo not given) is 6.31 µM

TGI for O=S(=O)(O)c1ccc(-c2nnc(-c3ccccn3)nc2-c2ccc(S(=O)(=O)O)o2)o1 is > 100 µM

TGI for Cc1cccc2c(N)c3cccc(C(=O)NCC[N+](C)(C)Cc4sccc4[N+](=O)[O-])c3nc12 is 35.5 µM

TGI for CCN(CC)CCCNc1nc(=O)[nH]c(C)c1C(=O)Nc1c2ccccc2nc2ccccc12 is 86.3 µM

TGI for CNC(=O)c1ccc2cc(C3(O)CCn4cncc43)ccc2c1 (stereo not given) is > 100 µM

TGI for O=[As](O)(O)c1ccc(N=Nc2ccc([As](=O)(O)O)cc2)cc1 is > 100 µM

TGI for CCOC(=O)c1cc2c(nc1N)-c1ncccc1CC2 is > 100 µM

TGI for Cn1cc(-c2cnc(-c3cn(C)c4ccccc34)cn2)c2ccccc21 is > 100 µM

Hi team, please reply with TGI for each item in this list.
1. CCCCCCCCCCCCCCCC(=O)OCC1CCCN2CCCCC12 (stereo not given)
2. O=C1c2ccccc2-c2c1c(-c1ccc([N+](=O)[O-])cc1)nc1ccc3ccccc3c21
3. COc1ccc(OC)c(C23CCCC(C2)N(C)CC3)c1 (stereo not given)
4. N#C/C(=C\c1ccc(O)c(O)c1)C(=O)NC1CCC(CC2CCC(NC(=O)/C(C#N)=C/c3ccc(O)c(O)c3)CC2)CC1 (stereo not given)
5. Oc1c2c(c3c4c1N=CC=4CCN=3)-c1c(Br)cc(Br)cc1CCN2
6. CC(C)OC(=O)C1=C(O)c2ccccc2S(=O)(=O)N1
7. O=C(O)c1cc2cc(c1)N=Cc1ccccc1OCc1cccc(n1)COc1ccccc1C=N2
8. Cc1cccc(C(=O)/C=C/SC(=NC#N)SCc2ccccc2)c1

RESULT:
1: > 100 µM; 2: > 100 µM; 3: 62.1 µM; 4: 40.6 µM; 5: 6.23 µM; 6: > 100 µM; 7: > 25 µM; 8: > 100 µM

Hi team, please reply with TGI for each item in this list.
1. O=C1C(c2c(O)[nH]c3ccc(S(=O)(=O)O)cc23)=Nc2ccc(Br)cc21
2. Cn1cc(C2=C(c3cccnc3)C(=O)NC2=O)c2ccccc21

RESULT:
> 100 µM
> 25 µM
